# tgt: CDK2/CyclinE1 (Homo sapiens, UniProt P24941)
# test_summary: CDKi biochemical assay (TR-FRET, phosphorylation of S780 on RB1 peptide)
# details: CDK2/CyclinE1 100 pM, 1 mM ATP, 60 min at 25° C.
A collection of compounds and their measured log10 of IC50
# log10 transformed; quantity=IC50; unit=nM

Input: Find the recorded log10 of IC50 belonging to O=C1N([C@@H]2CCC[C@@H](O)C2)c2nc(Nc3c[nH]nc3O)ncc2C12CC2 [Example 77] and report it.
Output: 2.08

Input: Find the recorded log10 of IC50 belonging to O=C1N([C@@H]2CCC[C@@H](O)C2)c2nc(Nc3c[nH]nc3OC3CN(CC(F)(F)F)C3)ncc2C12CC2 [Example 46] and report it.
Output: 2.04

Input: Find the recorded log10 of IC50 belonging to O=C1N([C@@H]2CCC[C@@H](O)C2)c2nc(Nc3c[nH]nc3O[C@@H]3COC[C@H]3F)ncc2C12CC2 [Example 24] and report it.
Output: 1.08

Input: Find the recorded log10 of IC50 belonging to O=C1N([C@@H]2CCC[C@@H](O)C2)c2nc(Nc3c[nH]nc3-c3ccncc3)ncc2C12CC2 [Example 59] and report it.
Output: 2.40

Input: Find the recorded log10 of IC50 belonging to O=C1N([C@@H]2CCC[C@@H](O)C2)c2nc(Nc3c[nH]nc3OCC(F)F)ncc2C12CC2 [Example 41] and report it.
Output: 0.70

Input: Find the recorded log10 of IC50 belonging to [2H]C([2H])([2H])Oc1n[nH]cc1Nc1ncc2c(n1)N([C@@H]1CCC[C@@H](O)C1)C(=O)C21CC1 [Example 49] and report it.
Output: 1.18

Input: Find the recorded log10 of IC50 belonging to O=C1N([C@@H]2CCC[C@@H](O)C2)c2nc(Nc3c[nH]nc3O[C@H]3COC[C@@H]3F)ncc2C12CC2 [Example 25] and report it.
Output: 1.38

Input: Find the recorded log10 of IC50 belonging to Cn1cc(-c2n[nH]cc2Nc2ncc3c(n2)N([C@@H]2CCC[C@@H](O)C2)C(=O)C32CC2)cn1 [Example 80] and report it.
Output: 1.46

Input: Find the recorded log10 of IC50 belonging to O=C1N([C@@H]2CCC[C@@H](O)C2)c2nc(Nc3c[nH]nc3O[C@H]3COC[C@H]3F)ncc2C12CC2 [Example 27] and report it.
Output: 1.04

Input: Find the recorded log10 of IC50 belonging to CSc1n[nH]cc1Nc1ncc2c(n1)N([C@@H]1CCC[C@@H](O)C1)C(=O)C21CC1 [Example 52] and report it.
Output: 1.49

Input: Find the recorded log10 of IC50 belonging to O=C1N([C@@H]2CCC[C@@H](O)C2)c2nc(Nc3c[nH]nc3-c3cnn(C(F)F)c3)ncc2C12CC2 [Example 34] and report it.
Output: 1.00

Input: Find the recorded log10 of IC50 belonging to O=C1N([C@@H]2CCC[C@@H](O)C2)c2nc(Nc3c[nH]nc3OC3CC3)ncc2C12CC2 [Example 55] and report it.
Output: 1.04

Input: Find the recorded log10 of IC50 belonging to O=C1N([C@@H]2CCC[C@@H](O)C2)c2nc(Nc3c[nH]nc3OCC(F)(F)F)ncc2C12CC2 [Example 56] and report it.
Output: 1.00

Input: Find the recorded log10 of IC50 belonging to Cn1ccc(COc2n[nH]cc2Nc2ncc3c(n2)N([C@@H]2CCC[C@@H](O)C2)C(=O)C32CC2)n1 [Example 43] and report it.
Output: 1.28

Input: Find the recorded log10 of IC50 belonging to CC#Cc1n[nH]cc1Nc1ncc2c(n1)N([C@@H]1CCC[C@@H](O)C1)C(=O)C21CC1 [Example 58] and report it.
Output: 1.20

Input: Find the recorded log10 of IC50 belonging to O=C1N([C@@H]2CCC[C@@H](O)C2)c2nc(Nc3c[nH]nc3OCC3COCC3(F)F)ncc2C12CC2 (stereo partly shown) [Example 76] and report it.
Output: 1.51

Input: Find the recorded log10 of IC50 belonging to O=C1N([C@@H]2CCC[C@@H](O)C2)c2nc(Nc3c[nH]nc3-c3cnn4cccnc34)ncc2C12CC2 [Example 81] and report it.
Output: 0.78

Input: Find the recorded log10 of IC50 belonging to O=C1N([C@@H]2CCC[C@@H](O)C2)c2nc(Nc3c[nH]nc3OC3CCC3)ncc2C12CC2 [Example 40] and report it.
Output: 1.41

Input: Find the recorded log10 of IC50 belonging to COCC(F)(F)COc1n[nH]cc1Nc1ncc2c(n1)N([C@@H]1CCC[C@@H](O)C1)C(=O)C21CC1 [Example 44] and report it.
Output: 1.18

Input: Find the recorded log10 of IC50 belonging to O=C1N([C@@H]2CCC[C@@H](O)C2)c2nc(Nc3c[nH]nc3C3CC3(F)F)ncc2C12CC2 (single isomer, unassigned) [Example 32] and report it.
Output: 0.78

Input: Find the recorded log10 of IC50 belonging to COCc1ncc(Nc2ncc3c(n2)N([C@@H]2CCC[C@@H](O)C2)C(=O)C32CC2)[nH]1 [Example 11] and report it.
Output: 3.13
